target: CDK12 (Homo sapiens, UniProt Q9NYV4); assay: Biochemical assay for CDK12 (LANCE TR-FRET, IC50 determination); settings: CDK12, IC50 class; read-out: IC50 μM (in range)
Sequence (Q9NYV4 whole entry): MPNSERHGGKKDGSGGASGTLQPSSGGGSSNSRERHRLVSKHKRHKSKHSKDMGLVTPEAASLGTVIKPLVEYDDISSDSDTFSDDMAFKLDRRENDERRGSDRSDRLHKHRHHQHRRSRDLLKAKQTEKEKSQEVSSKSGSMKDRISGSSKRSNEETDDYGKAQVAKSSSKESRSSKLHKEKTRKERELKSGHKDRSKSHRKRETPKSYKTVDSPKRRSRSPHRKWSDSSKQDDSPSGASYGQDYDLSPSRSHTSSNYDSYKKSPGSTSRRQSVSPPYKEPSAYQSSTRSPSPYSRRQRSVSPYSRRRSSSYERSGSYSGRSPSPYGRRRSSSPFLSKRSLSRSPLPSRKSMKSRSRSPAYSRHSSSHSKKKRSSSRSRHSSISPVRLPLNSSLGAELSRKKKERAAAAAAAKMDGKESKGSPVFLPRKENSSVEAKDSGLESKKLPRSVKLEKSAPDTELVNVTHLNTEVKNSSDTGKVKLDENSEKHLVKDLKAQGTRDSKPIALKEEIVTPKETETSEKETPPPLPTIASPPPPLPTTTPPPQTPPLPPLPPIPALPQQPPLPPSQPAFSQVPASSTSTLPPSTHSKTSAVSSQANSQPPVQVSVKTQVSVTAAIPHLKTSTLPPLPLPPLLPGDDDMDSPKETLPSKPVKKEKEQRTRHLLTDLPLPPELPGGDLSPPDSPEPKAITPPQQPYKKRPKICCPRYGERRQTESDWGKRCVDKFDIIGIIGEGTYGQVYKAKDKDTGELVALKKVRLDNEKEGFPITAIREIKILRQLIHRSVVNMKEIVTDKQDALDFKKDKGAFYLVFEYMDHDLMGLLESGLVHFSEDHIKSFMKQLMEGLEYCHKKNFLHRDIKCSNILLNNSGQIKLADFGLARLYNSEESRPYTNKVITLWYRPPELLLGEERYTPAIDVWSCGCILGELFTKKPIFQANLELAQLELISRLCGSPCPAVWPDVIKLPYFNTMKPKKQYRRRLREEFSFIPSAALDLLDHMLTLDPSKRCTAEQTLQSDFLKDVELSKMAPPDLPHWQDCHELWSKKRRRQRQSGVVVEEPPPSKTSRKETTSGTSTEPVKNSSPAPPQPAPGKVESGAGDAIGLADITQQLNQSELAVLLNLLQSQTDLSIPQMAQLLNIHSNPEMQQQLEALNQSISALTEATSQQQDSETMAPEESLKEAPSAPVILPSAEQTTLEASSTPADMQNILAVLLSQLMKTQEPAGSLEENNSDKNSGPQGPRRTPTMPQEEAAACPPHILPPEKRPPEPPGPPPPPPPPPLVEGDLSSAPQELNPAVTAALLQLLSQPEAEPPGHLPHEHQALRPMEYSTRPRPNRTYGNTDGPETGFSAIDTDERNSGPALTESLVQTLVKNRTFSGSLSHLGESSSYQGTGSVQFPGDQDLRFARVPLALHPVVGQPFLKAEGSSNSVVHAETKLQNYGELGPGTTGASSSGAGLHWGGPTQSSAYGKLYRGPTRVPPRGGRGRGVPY
Sequence (O75909 whole entry partner): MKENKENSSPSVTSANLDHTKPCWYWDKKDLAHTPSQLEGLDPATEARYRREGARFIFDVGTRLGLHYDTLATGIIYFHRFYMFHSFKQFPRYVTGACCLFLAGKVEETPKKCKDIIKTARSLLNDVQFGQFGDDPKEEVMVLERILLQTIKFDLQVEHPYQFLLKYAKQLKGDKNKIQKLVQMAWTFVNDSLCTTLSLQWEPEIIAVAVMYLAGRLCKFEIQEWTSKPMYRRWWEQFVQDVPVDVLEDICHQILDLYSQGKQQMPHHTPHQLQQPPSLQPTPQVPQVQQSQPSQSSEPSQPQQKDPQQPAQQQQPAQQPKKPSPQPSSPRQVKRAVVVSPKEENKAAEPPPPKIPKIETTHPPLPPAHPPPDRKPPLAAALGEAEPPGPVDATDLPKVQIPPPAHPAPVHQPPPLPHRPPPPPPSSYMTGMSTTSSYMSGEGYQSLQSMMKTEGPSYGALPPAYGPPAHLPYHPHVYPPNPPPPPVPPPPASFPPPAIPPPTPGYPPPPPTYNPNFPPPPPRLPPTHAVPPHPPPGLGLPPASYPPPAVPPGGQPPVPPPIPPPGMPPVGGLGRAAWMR
Measurement Type: IC50

For every item in the list below, what is its measured IC50?
1. COc1cc(NC(=O)Cc2ccc(C3=CCCN(C#N)C3)cc2F)ncc1Cl
2. N#CN1CCC(c2ccc(CC(=O)Nc3ccc(Cl)cn3)cn2)C1 (stereo not shown)

["0.01 to 0.1 µM", "0.01 to 0.1 µM"]

For each of the molecules below, state IC50.
1. COc1cc(NC(=O)Cc2ccc(-c3cnc(C#N)nc3)nc2)ncc1Cl
2. COc1cc(C#N)nc(-c2ccc(CC(=O)Nc3cc(OC)c(Cl)cn3)cn2)c1
3. CNC(=O)C(C)Oc1cc(NC(=O)Cc2ccc(C3=CCN(C#N)CC3)nc2)ncc1Cl (stereo not shown) [Compound 1]
4. N#CN1CCCC(c2ccc(CC(=O)Nc3cc(O[C@@H]4CCOC4)c(Cl)cn3)cn2)C1 (single isomer, unassigned) [Compound 93]

["0.01 to 0.1 µM", "0.01 to 0.1 µM", "< 0.01 µM", "0.01 to 0.1 µM"]

Record IC50 for all entries; do not skip any.
1. CNC(=O)C(C)Oc1cc(NC(=O)Cc2ccc(C3CCCN(C#N)C3)nc2)ncc1Cl (single isomer, unassigned) [Compound 89]
2. COc1cc(NC(=O)Cc2ccc(C3=CCN(C#N)CC3C)nc2)ncc1Cl (single isomer, unassigned) [Compound 72]
3. CNC(=O)C(C)Oc1cc(NC(=O)Cc2ccc(C3CCCN(C#N)C3)nc2)ncc1Cl (stereo not shown) [Compound 85]

1. 0.01 to 0.1 µM
2. < 0.01 µM
3. 0.01 to 0.1 µM

Give me IC50 for each of these molecules, listed below.
1. COc1cc(NC(=O)Cc2ccc(C3CCCN(C#N)C3)nc2)ncc1Cl (single isomer, unassigned) [Compound 79]
2. COc1cc(NC(=O)Cc2ccc(C3=CCN(C#N)CC3)cn2)ncc1Cl
3. COc1cc(NC(=O)Cc2ccc(C3=CCN(C#N)CC3C)nc2)ncc1Cl (single isomer, unassigned) [Compound 71]
4. CC1CC(Oc2cc(NC(=O)Cc3ccc(C4=CCCN(C#N)C4)nc3)ncc2Cl)CCN1C (stereo not shown) [Compound 63]

1. > 0.1 µM
2. 0.01 to 0.1 µM
3. < 0.01 µM
4. < 0.01 µM

---

Record form. Attribute: IC50. Fill in for each entry.
biological target: CDK12 (Homo sapiens, UniProt Q9NYV4); experiment: Biochemical assay for CDK12 (LANCE TR-FRET, IC50 determination); details: CDK12, IC50 class; read-out: IC50 μM (in range)

Sample records with IC50:
- Compound: "COCCOc1cc(C#N)nc(-c2ccc(CC(=O)Nc3cc(OC)c(Cl)cn3)cn2)c1"
  IC50: "0.01 to 0.1 µM"
- Compound: "CNC(=O)C(C)Oc1cc(NC(=O)Cc2ccc(-c3ccc(C#N)nc3)nc2)ncc1Cl (centres unmarked)"
  IC50: "0.01 to 0.1 µM"

# return IC50 for each item in the list
1. COc1cc(NC(=O)Cc2ccc(-c3cc(OC4CCN(C)CC4)cc(C#N)n3)nc2)ncc1Cl
2. COc1cc(NC(=O)Cc2ccc(C3CCN(C#N)CC3)nc2)ncc1C1CC1
3. COc1cc(NC(=O)Cc2ccc(-c3ccc(CN(C)C#N)nc3)nc2)ncc1Cl
4. COc1cc(NC(=O)Cc2ccc(-c3cc(OC4CCCN(C)C4)cc(C#N)n3)nc2)ncc1Cl (centres unmarked)
5. COc1cc(NC(=O)Cc2ccc(C3=CC4CN(C#N)CC4C3)nc2)ncc1Cl (centres unmarked)
6. COc1cc(NC(=O)Cc2ccc(-c3cc(N4CCC(C)(O)C4)cc(C#N)n3)nc2)ncc1Cl (centres unmarked)

1. 0.01 to 0.1 µM
2. > 0.1 µM
3. 0.01 to 0.1 µM
4. < 0.01 µM
5. < 0.01 µM
6. > 0.1 µM
